Quick reference for melting point among some compounds

SMILES_STR | melting point [°C]
Nc1nc(-c2ccccn2)c(-c2ccnc(-c3ccsc3)c2)s1 | 244
COc1ccc(-c2cc(-c3sc(N)nc3-c3ccccn3)ccn2)cc1 | 222
Nc1nc(-c2ccccn2)c(-c2ccnc(-c3ccc(F)cc3)c2)s1 | 250
CCc1ccc(-c2cc(-c3sc(N)nc3-c3ccccn3)ccn2)cc1 | 238
CCOc1ccc(-c2cc(-c3sc(N)nc3-c3ccccn3)ccn2)cc1 | 246
